B1: Mineralocorticoid receptor, residues 600 to 675; numbered along this chain, P08235 (parent)
chain: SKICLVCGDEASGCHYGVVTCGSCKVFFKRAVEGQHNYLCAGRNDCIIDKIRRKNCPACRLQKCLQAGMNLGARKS

Variants of: B1
PROCEDURE_TEXT: abundance fitness (aPCA) (normalised: wild type 0, dead -1); higher = more abundant; growth selection in yeast, the domain comes from the species named
CONDITION_NOTES: Homo sapiens
# Lookup of reported abundance fitness keyed by entry
Write the value as a bare number.

Some variants with recorded abundance fitness:
G22M : -0.035
Q66E : 0.081
S76Y : -0.075

Request: Record request: abundance fitness value, item S1R
Response: -0.099

Request: What does the data say about its abundance fitness? Entry: M69G
Response: -0.235

Request: Quick one: abundance fitness for G22N ?
Response: -0.236
